read-out: Glutamate-cysteine ligase regulatory (GCLM), GCLM (gene 2730); experiment: LTEA_HepaRG_GCLM: Life Technologies and Expression Analysis (LTEA) Assay for Glutamate-cysteine ligase regulatory (GCLM) using HepaRG (AID 2283500); conditions: mRNA level, 48 h; actives raise or lower the signal
Calls of active or inactive are those of the source. Rule for the calls: active = hit-call score of the fitted dose curve at least 0.9, where 1 is the maximum; inactive = score below 0.9.
measurementKind: outcome

Oc1ccccc1-c1ccccc1 | inactive
CCCCNC(=O)OCC#CI | inactive
COC(=O)C(C)Oc1ccc(Oc2ccc(Cl)cc2Cl)cc1 (configuration not stated) | inactive
CNC(=S)S | inactive
CCCCC(CC)COC(=O)c1ccccc1C(=O)OCC(CC)CCCC (configuration not stated) | inactive
C=CCC1=C(C)[C@@H](OC(=O)[C@@H]2[C@@H](C=C(C)C)C2(C)C)CC1=O | inactive

COc1cnc(OC)n2nc(NS(=O)(=O)c3c(OCC(F)F)cccc3C(F)(F)F)nc12 has a reported outcome of inactive

Recorded result, CS/C(C)=N/OC(=O)N(C)SN(C)C(=O)O/N=C(\C)SC , outcome: inactive

For reference, reported outcome for COc1nc(NC(C)C)nc(NC(C)C)n1 stands at inactive

====

experiment: IUF_NPC2-5_cell_number_120hr: Cell Number Assessment at 120 hours in the Leibniz Research Institute for Environmental Medicine (IUF) Neural Progenitor Cell Migration and Differentiation Assay (NPC2-5) (AID 2284308);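 note: count of Hoechst-stained nuclei in migration zone around plated human neural progenitor spheres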
Active and inactive are the calls of the source. Rule for the calls: active = hit-call score of the fitted dose curve at least 0.9, where 1 is the maximum; inactive = score below 0.9.
Write down one outcome, taken from active, inactive

What is the recorded call for this compound in the test? COP(=S)(OC)Oc1nc(Cl)c(Cl)cc1Cl inactive

Hello, I am checking results. What call was entered for CCCCOC(=O)c1ccccc1C(=O)OCCCC ? inactive

So what was the verdict on Cc1ccc(-c2c(Cl)nc(C#N)n2S(=O)(=O)N(C)C)cc1 in this test? active

Recorded call for CC(C)(C)c1ccc(CSc2cnn(C(C)(C)C)c(=O)c2Cl)cc1 ? inactive

Kindly provide the recorded test outcome for the following compound: CCCCC(CC)COC(=O)c1ccccc1C(=O)OCC(CC)CCCC (configuration not stated) inactive

Fill in: this test's call for COC(=O)N(OC)c1ccccc1COc1ccn(-c2ccc(Cl)cc2)n1 is ___ active

// return assay outcome for CCOc1cc(Oc2ccc(C(F)(F)F)cc2Cl)ccc1[N+](=O)[O-] inactive

====

assay: BSK_3C_Proliferation: Cell Proliferation Assessment in the BioMAP Diversity Plus: 3C Assay (AID 2283006); conditions: primary human endothelial cells (HUVEC)
Activity calls are given as the source filed them. How the source made its calls: active means hit-call score of the fitted dose curve at least 0.9, where 1 is the maximum; inactive means score below 0.9.
Choose the fitting class; nothing outside Y (active), N (inactive) is accepted.

Test call for this molecule, please: COC(=O)N(OC)c1ccccc1COc1ccn(-c2ccc(Cl)cc2)n1 Y

Per the assay record, what outcome was assigned to COC(=O)C(C)Oc1ccc(Oc2ccc(Cl)cc2Cl)cc1 (configuration not stated) ? N

Hi team, can someone confirm the assay call for COP(N)(=O)SC (configuration not stated) ? N

Hey, what did the test say about Fc1ccc(Oc2ccnc3cc(Cl)cc(Cl)c23)cc1 ? Y

# outcome recorded in this test, key = CNC(=O)ON=CC(C)(C)SC N

State the result this test recorded for COc1cnc(OC)n2nc(NS(=O)(=O)c3c(OCC(F)F)cccc3C(F)(F)F)nc12 . N

Given COC(=O)c1ccccc1C(=O)OC , state the outcome it received in this test. N

Which outcome did this test record for the molecule CCc1nn(C)c(C(=O)NCc2ccc(C(C)(C)C)cc2)c1Cl ? Y

Please share the test call associated with COC(=O)C=C(C)OP(=O)(OC)OC . N

Hi, do you know how C=CCC1=C(C)[C@@H](OC(=O)[C@@H]2[C@@H](C=C(C)C)C2(C)C)CC1=O came out in this test? Y

# lookup: test call for COc1nc(NC(C)C)nc(NC(C)C)n1 N

Dear all, I need the recorded test outcome for CCCC1COC(Cn2cncn2)(c2ccc(Cl)cc2Cl)O1 (configuration not stated) , thank you. N

====

test: IUF_NPC2-5_cytotoxicity_72hr: Cytotoxicity Assessment at 72 hours in the Leibniz Research Institute for Environmental Medicine (IUF) Neural Progenitor Cell Migration and Differentiation Assay for Cytotoxicity (NPC2-5) (AID 2284306);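 note: LDH release into supernatant measured by resorufin fluorescence marking membrane damage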
Records with an inconclusive call do not appear. Active and inactive are the calls of the source. How the source made its calls: active means hit-call score of the fitted dose curve at least 0.9, where 1 is the maximum; inconclusive means response in the unintended direction; inactive means score below 0.9.
Allowed answers: active, inactive

Please indicate how the test categorized Cc1ccc(-c2c(Cl)nc(C#N)n2S(=O)(=O)N(C)C)cc1 . inactive

What is the recorded call for this molecule in the test? CCCCC(CC)COC(=O)c1ccccc1C(=O)OCC(CC)CCCC (centres undefined) inactive

Outcome? C=CC1(C)OC(=O)N(c2cc(Cl)cc(Cl)c2)C1=O (centres undefined) inactive

What is the recorded call for this molecule in the test? COP(N)(=O)SC (centres undefined) inactive

Hi team, can someone confirm the assay call for CN(C)C(=S)SSC(=S)N(C)C ? active

Assay outcome for CCCCOC(=O)c1ccccc1C(=O)OCCCC : what was it? inactive

Which outcome was entered for the molecule CC(C)(C)c1ccc(CSc2cnn(C(C)(C)C)c(=O)c2Cl)cc1 in this test? inactive

Outcome? CO/C=C(/C(=O)OC)c1ccccc1Oc1cc(Oc2ccccc2C#N)ncn1 inactive

Field: outcome | Entry: COC(=O)N(OC)c1ccccc1COc1ccn(-c2ccc(Cl)cc2)n1 inactive

====

Target: rat CYP2D2, Cyp2d26 (gene 25053)
Experiment: NVS_ADME_rCYP2D2: NovaScreen (NVS) CYP450-related Enzyme Activity (ADME) Assay for rat CYP2D2 (AID 2283124)
Experimental: NVS_ADME_rCYP2D2 is a biochemical, single-readout assay that uses extracted gene-proteins in a cell-free assay. Measurements were taken 0.75 hour after chemical dosing in a 96-well plate.NVS_ADME_rCYP2D2 is one of one assay component(s) measured or calculated from the NVS_ADME_rCYP2D2 assay. […] This assay endpoint, NVS_ADME_rCYP2D2, was analyzed in the positive analysis fitting direction relative to Acetonitrile as the negative control and baseline of activity. […]
Records with an inconclusive call do not appear. Active and inactive are the calls of the source. How the source made its calls: active means hit-call score of the fitted dose curve at least 0.9, where 1 is the maximum; inconclusive means response in the unintended direction; inactive means score below 0.9.
measurementKind: AC50

Per the records, this compound ( Cc1ccc(-c2c(Cl)nc(C#N)n2S(=O)(=O)N(C)C)cc1 ) has AC50 equal to 4310 nM (active)

// AC50 lookup, compound = CC1COC(Cn2cncn2)(c2ccc(Oc3ccc(Cl)cc3)cc2Cl)O1 (centres undefined) , result: 1400 nM (active)

Notebook: CCCN(CCC)c1c([N+](=O)[O-])cc(S(N)(=O)=O)cc1[N+](=O)[O-] , AC50 read as 1300 nM (active)

// sample CCOC(=O)CC(SP(=S)(OC)OC)C(=O)OCC (centres undefined) , its AC50 was 6280 nM (active)

====

Read-out: Thrombomodulin, THBD (gene 7056)
Assay: BSK_3C_Thrombomodulin: BioMAP Diversity Plus: 3C Assay for Thrombomodulin Biomarker Activity (AID 2283029)
Settings: primary human endothelial cells (HUVEC); actives raise or lower the signal
Protocol: BSK_3C is a cell-based, multiplexed-readout assay that uses umbilical vein endothelium, a human vascular primary cell, with measurements taken at 24 hours after chemical dosing in a 96-well plate.BSK_3C_Thrombomodulin is an assay component measured in the BSK_3C assay. It measures Thrombomodulin antibody related to regulation of gene expression using ELISA technology.Data from the assay component BSK_3C_Thrombomodulin was analyzed into 1 assay endpoint. […]
Calls of active or inactive are those of the source. The calls were made as follows: active = hit-call score of the fitted dose curve at least 0.9, where 1 is the maximum; inactive = score below 0.9.
Bench note: report the call from active, inactive

Returns: the outcome recorded for CC(C)C1(C)N=C(c2nc3ccccc3cc2C(=O)O)NC1=O (stereo not drawn) in this assay. inactive

Give the logged outcome of this assay for the following molecule: COP(=S)(OC)Oc1nc(Cl)c(Cl)cc1Cl inactive

Look up the recorded call for C#CCOS(=O)OC1CCCCC1Oc1ccc(C(C)(C)C)cc1 (stereo not drawn) in this test. inactive

Any idea what this test logged for N#CC(CCc1ccc(Cl)cc1)(Cn1cncn1)c1ccccc1 (stereo not drawn) ? inactive

Dear colleague, could you share the recorded outcome for Cc1cc(Cl)ccc1OCC(=O)O when you have a moment? inactive

Dear all, I need the recorded test outcome for CCCC1COC(Cn2cncn2)(c2ccc(Cl)cc2Cl)O1 (stereo not drawn) , thank you. inactive

What was the test verdict on COC(=O)C=C(C)OP(=O)(OC)OC ? inactive

// param item: CCCCOC(=O)c1ccccc1C(=O)OCCCC ; yields the recorded call inactive

I'd appreciate the recorded outcome for CNC(=O)ON=CC(C)(C)SC from this test. inactive

Kindly provide the recorded test outcome for the following molecule: COC(=O)N(OC)c1ccccc1COc1ccn(-c2ccc(Cl)cc2)n1 active

Record request — test call for O=C(O)COc1nc(Cl)c(Cl)cc1Cl inactive

Hello, I am checking results. What call was entered for CON(C)C(=O)Nc1ccc(Cl)c(Cl)c1 ? inactive

Query: recorded result category for COC(=O)c1ccccc1C(=O)OC in this test inactive

====

biological target: Aryl hydrocarbon receptor (Homo sapiens) (UniProt P35869); experiment: ATG_Ahr_CIS: Attagene CIS-FACTORIAL HepG2 Assay for human Aryl Hydrocarbon Receptor (Ahr) (AID 2282930); conditions: HepG2 AhR cis-factorial reporter transcription; actives raise or lower the signal
Sequence (P35869 whole entry, looked up): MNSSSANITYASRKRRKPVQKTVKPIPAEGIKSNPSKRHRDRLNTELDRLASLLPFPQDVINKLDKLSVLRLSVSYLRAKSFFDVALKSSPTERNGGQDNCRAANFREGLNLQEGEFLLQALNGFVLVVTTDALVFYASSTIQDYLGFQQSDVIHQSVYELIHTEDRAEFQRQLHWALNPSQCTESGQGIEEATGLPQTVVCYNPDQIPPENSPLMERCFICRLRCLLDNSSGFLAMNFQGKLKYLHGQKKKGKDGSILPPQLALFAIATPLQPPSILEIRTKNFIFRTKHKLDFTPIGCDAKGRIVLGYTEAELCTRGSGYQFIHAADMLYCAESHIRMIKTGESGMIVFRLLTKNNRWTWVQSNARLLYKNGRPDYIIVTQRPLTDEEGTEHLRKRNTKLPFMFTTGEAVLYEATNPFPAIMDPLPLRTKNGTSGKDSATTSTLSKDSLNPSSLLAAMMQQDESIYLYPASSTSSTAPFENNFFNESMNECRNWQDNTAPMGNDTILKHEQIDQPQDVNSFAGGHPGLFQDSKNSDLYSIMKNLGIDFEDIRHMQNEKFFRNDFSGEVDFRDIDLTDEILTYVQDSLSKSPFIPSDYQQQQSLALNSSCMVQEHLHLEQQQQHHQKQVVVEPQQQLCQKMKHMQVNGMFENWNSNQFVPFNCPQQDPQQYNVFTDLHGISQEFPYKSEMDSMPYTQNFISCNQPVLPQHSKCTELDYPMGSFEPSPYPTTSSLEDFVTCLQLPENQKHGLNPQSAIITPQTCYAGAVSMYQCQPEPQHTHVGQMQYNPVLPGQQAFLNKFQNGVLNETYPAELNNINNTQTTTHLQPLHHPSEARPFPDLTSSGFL
Calls of active or inactive are those of the source. Rule for the calls: active = hit-call score of the fitted dose curve at least 0.9, where 1 is the maximum; inactive = score below 0.9.
Entry note: the call must match one of t (active), f (inactive)

Hello, I am checking results. What call was entered for COP(N)(=O)SC (centres undefined) ? f

Entry CC(Oc1ccc(Cl)cc1Cl)C(=O)O (centres undefined) : call = ? f

What did the test return for Cc1cc(Cl)ccc1OCC(=O)O ? f

Outcome logged for CNC(=O)ON=CC(C)(C)SC in this assay: f

State the result this test recorded for CCCCOC(=O)c1ccccc1C(=O)OCCCC . f

Query: recorded result category for N#Cc1cc(Br)c(O)c(Br)c1 in this test t

How did this test come out for OC(c1ccc(Cl)cc1)(c1cncnc1)c1ccccc1Cl (centres undefined) ? f

GET /call?item= COC(=O)C=C(C)OP(=O)(OC)OC returns the recorded outcome of this test. f

Recorded test outcome, item CCOc1cc(Oc2ccc(C(F)(F)F)cc2Cl)ccc1[N+](=O)[O-] f

What classification did COC(=O)C(C)Oc1ccc(Oc2ccc(Cl)cc2Cl)cc1 (centres undefined) end up with in this test? f

Called result for CN(C)C(=S)SSC(=S)N(C)C f

Which outcome did this test record for the compound CCOC(=O)CC(SP(=S)(OC)OC)C(=O)OCC (centres undefined) ? f

Test call for this compound, please: COC(=O)N(OC)c1ccccc1COc1ccn(-c2ccc(Cl)cc2)n1 f

Hi, do you know how Fc1ccc(Oc2ccnc3cc(Cl)cc(Cl)c23)cc1 came out in this test? f
